Attribute: IC50
target: α-glucosidase (Saccharomyces cerevisiae, UniProt P53341); construct: purchased Sigma-Aldrich, Munich, Germany; assay: biochemical; assay type: biochemical
Sequence (P53341 whole entry): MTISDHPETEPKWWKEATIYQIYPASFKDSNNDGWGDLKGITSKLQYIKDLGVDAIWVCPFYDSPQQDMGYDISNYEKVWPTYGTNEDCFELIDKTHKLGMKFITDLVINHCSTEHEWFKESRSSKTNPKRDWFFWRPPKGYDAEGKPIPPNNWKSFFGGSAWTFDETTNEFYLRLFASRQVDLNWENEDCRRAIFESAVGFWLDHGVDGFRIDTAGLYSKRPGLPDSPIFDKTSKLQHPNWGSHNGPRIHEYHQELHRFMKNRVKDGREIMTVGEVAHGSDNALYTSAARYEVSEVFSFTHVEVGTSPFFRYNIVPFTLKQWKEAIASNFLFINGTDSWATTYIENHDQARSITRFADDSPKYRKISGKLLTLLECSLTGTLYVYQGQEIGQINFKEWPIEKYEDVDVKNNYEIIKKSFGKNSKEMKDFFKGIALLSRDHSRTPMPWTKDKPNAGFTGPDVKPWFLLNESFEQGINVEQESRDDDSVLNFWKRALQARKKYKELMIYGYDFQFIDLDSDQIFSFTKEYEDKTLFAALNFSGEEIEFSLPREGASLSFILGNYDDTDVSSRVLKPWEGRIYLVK

Use the examples below as a reference point.
O=C(CN1C(C(=O)c2ccccc2)=C(O)c2ccccc2S1(=O)=O)Nc1cccc(Br)c1 [Compound 11j]	> 100 µM
O=C(C1=C(O)c2ccccc2S(=O)(=O)N1)c1ccc(Br)cc1	> 100 µM
O=C(CN1C(C(=O)c2ccc(Br)cc2)=C(O)c2ccccc2S1(=O)=O)Nc1cccc([N+](=O)[O-])c1 [Compound 12h]	> 100 µM

Prompt: // query IC50 value for entry COc1ccccc1NC(=O)CN1C(C(=O)c2ccccc2)=C(O)c2ccccc2S1(=O)=O [Compound 11l]
Completion: > 100 µM

Prompt: Sample O=C(CN1C(C(=O)c2ccc(Br)cc2)=C(O)c2ccccc2S1(=O)=O)Nc1ccc(Cl)cc1 [Compound 12c] — what was its IC50?
Completion: > 100 µM

Attribution: paper PMC8161055
